# System: Septoria tritici
# testDescription: Leaf blotch of wheat (SEPTTR) disease control on wheat seedlings
# Type: in vivo, Mycosphaerella graminicola (anamorph Septoria tritici)
# recordedConditions: Zymoseptoria tritici, 72 h, 3DC (3 Day Curative), 100 ppm, high volume application, read-out: SEPTTR disease control rating (% Control)
A collection of molecules and their measured pest or weed control at 100 ppm
parameterMeasured: pest or weed control at 100 ppm

[
  {
    "lineNotation": "COc1ccnc(C(=O)N[C@H]2COC[C@H](OCC3CC3)[C@@H](Cc3ccccc3)[C@H](C)OC2=O)c1OC(C)=O",
    "endpointResult": "> 70%"
  },
  {
    "lineNotation": "COc1ccnc(C(=O)N[C@H]2COC[C@H](OCc3ccccc3)[C@@H](CCC(C)C)[C@H](C)OC2=O)c1O",
    "endpointResult": "< 70%"
  },
  {
    "lineNotation": "COc1ccnc(C(=O)N[C@H]2COC[C@H](Oc3ccccc3)[C@@H](CCC(C)C)[C@H](C)OC2=O)c1O",
    "endpointResult": "< 70%"
  }
]
